# System: HeLa
# method-summary: Antiproliferative activity against human HeLa cells after 48 hrs by MTT assay relative to control
# Assay type: functional, cell-based
pIC50: −log10 of the molar value.
property-name: pIC50

1) COc1ccc(CCn2c(C)cc3c(c2=O)C(c2cc(OC)c(OC)c(OC)c2)C(C#N)=C(N)O3)cc1OC (stereo not given) = 4.64

1: Cc1cc2c(c(=O)n1C)C(c1cccc([N+](=O)[O-])c1)C(C#N)=C(N)O2 (stereo not given)
2: COc1cc(C2C(C#N)=C(N)Oc3cc(C)n(C)c(=O)c32)cc(Br)c1O (stereo not given)
3: Cc1cc2c(c(=O)n1C)C(c1cccc(Br)c1)C(C#N)=C(N)O2 (stereo not given)
Put the items in sequence by pIC50, from largest down. Use the labels to give the ranking in the order requested.
2, 3, 1
